# Test system: Escherichia coli TOP10
# measurementNotes: shrunken log2 fold change of peptide-encoding DNA abundance (4.5 h post-induction vs induction); higher = less antimicrobial activity (less host growth inhibition)
# experimentalConditions: time post-induction: 4.5 h; library: site-saturation at positions 5, 18, 19, 20
property: shrunken log2 fold change

residueSequence: RRIRRRPPRLPRPRPRPYQRPRP
quantitativeResult: -0.0429
//
residueSequence: RRIRPRPPRLPRPRPRPWFDPRP
quantitativeResult: -0.278
//
residueSequence: RRIRNRPPRLPRPRPRPKCFPRP
quantitativeResult: -0.192
//
residueSequence: RRIRARPPRLPRPRPRPEVYPRP
quantitativeResult: -0.00104
//
residueSequence: RRIRDRPPRLPRPRPRPQTQPRP
quantitativeResult: 0.372
//
residueSequence: RRIRERPPRLPRPRPRPPEVPRP
quantitativeResult: 0.452
//
residueSequence: RRIRHRPPRLPRPRPRPAPNPRP
quantitativeResult: 0.497
//
residueSequence: RRIRKRPPRLPRPRPRPCQTPRP
quantitativeResult: 0.233
//
residueSequence: RRIRRRPPRLPRPRPRPPWLPRP
quantitativeResult: 0.634
//
residueSequence: RRIRLRPPRLPRPRPRPNDSPRP
quantitativeResult: -0.0215
//
residueSequence: RRIRSRPPRLPRPRPRPMKTPRP
quantitativeResult: 0.0178
//
residueSequence: RRIRPRPPRLPRPRPRPSFWPRP
quantitativeResult: 0.129
//
residueSequence: RRIRPRPPRLPRPRPRPMIYPRP
quantitativeResult: -0.113
//
residueSequence: RRIRCRPPRLPRPRPRPYFEPRP
quantitativeResult: -0.572
//
residueSequence: RRIRLRPPRLPRPRPRPRRNPRP
quantitativeResult: 0.0956
//
residueSequence: RRIRIRPPRLPRPRPRPFRIPRP
quantitativeResult: -0.103
//
residueSequence: RRIRLRPPRLPRPRPRPSNFPRP
quantitativeResult: -0.956
//
residueSequence: RRIRLRPPRLPRPRPRPHAAPRP
quantitativeResult: -0.343
//
residueSequence: RRIRHRPPRLPRPRPRPMQRPRP
quantitativeResult: 0.138
//
residueSequence: RRIRHRPPRLPRPRPRPMSSPRP
quantitativeResult: -0.225
//
residueSequence: RRIRKRPPRLPRPRPRPGYTPRP
quantitativeResult: -0.0679
//
residueSequence: RRIRHRPPRLPRPRPRPSLQPRP
quantitativeResult: -0.0974
//
residueSequence: RRIRTRPPRLPRPRPRPRLDPRP
quantitativeResult: -0.0828
//
residueSequence: RRIRARPPRLPRPRPRPDNTPRP
quantitativeResult: -0.214

----------
# Tested on: Escherichia coli TOP10
# measurementNotes: shrunken log2 fold change of peptide-encoding DNA abundance (4.5 h post-induction vs induction); higher = less antimicrobial activity (less host growth inhibition)
# experimentalConditions: time post-induction: 4.5 h; library: site-saturation at positions 5, 18, 19, 20
Rule: shrunken log2 fold change of 0.002 or more gives Met; anything lower gives Not met.

residueSequence: RRIRRRPPRLPRPRPRPNEPPRP
class: Met
--
residueSequence: RRIRRRPPRLPRPRPRPLHMPRP
class: Met
--
residueSequence: RRIRIRPPRLPRPRPRPYSFPRP
class: Not met
--
residueSequence: RRIRARPPRLPRPRPRPYMLPRP
class: Not met
--
residueSequence: RRIRCRPPRLPRPRPRPKPVPRP
class: Met
--
residueSequence: RRIRYRPPRLPRPRPRPVAWPRP
class: Met
--
residueSequence: RRIRRRPPRLPRPRPRPQMWPRP
class: Not met
--
residueSequence: RRIRQRPPRLPRPRPRPHTVPRP
class: Not met
--
residueSequence: RRIRWRPPRLPRPRPRPQTVPRP
class: Not met
--
residueSequence: RRIRNRPPRLPRPRPRPQKRPRP
class: Not met
--
residueSequence: RRIRKRPPRLPRPRPRPALMPRP
class: Met
--
residueSequence: RRIRLRPPRLPRPRPRPPTSPRP
class: Met
--
residueSequence: RRIRGRPPRLPRPRPRPNFRPRP
class: Not met
--
residueSequence: RRIRPRPPRLPRPRPRPGKEPRP
class: Met
--
residueSequence: RRIRSRPPRLPRPRPRPYILPRP
class: Not met
--
residueSequence: RRIRLRPPRLPRPRPRPECLPRP
class: Not met
--
residueSequence: RRIRGRPPRLPRPRPRPCPLPRP
class: Not met
--
residueSequence: RRIRMRPPRLPRPRPRPLSDPRP
class: Met
--
residueSequence: RRIRLRPPRLPRPRPRPMWDPRP
class: Met
--
residueSequence: RRIRDRPPRLPRPRPRPNYYPRP
class: Not met
--
residueSequence: RRIRRRPPRLPRPRPRPFYFPRP
class: Met
--
residueSequence: RRIRERPPRLPRPRPRPAWAPRP
class: Met
--
residueSequence: RRIRSRPPRLPRPRPRPPNPPRP
class: Met
--
residueSequence: RRIRMRPPRLPRPRPRPKKCPRP
class: Met
--
residueSequence: RRIRFRPPRLPRPRPRPHQFPRP
class: Not met
--
residueSequence: RRIRARPPRLPRPRPRPYFQPRP
class: Not met
--
residueSequence: RRIRGRPPRLPRPRPRPRWCPRP
class: Met
--
residueSequence: RRIRPRPPRLPRPRPRPLAQPRP
class: Met
--
residueSequence: RRIRPRPPRLPRPRPRPIISPRP
class: Not met
--
residueSequence: RRIRGRPPRLPRPRPRPQRMPRP
class: Met
--
residueSequence: RRIRLRPPRLPRPRPRPLEIPRP
class: Not met
--
residueSequence: RRIRDRPPRLPRPRPRPLDIPRP
class: Met
--
residueSequence: RRIRKRPPRLPRPRPRPEVFPRP
class: Met
--
residueSequence: RRIRNRPPRLPRPRPRPYPFPRP
class: Met
--
residueSequence: RRIRHRPPRLPRPRPRPDREPRP
class: Met
--
residueSequence: RRIRWRPPRLPRPRPRPHSGPRP
class: Met
--
residueSequence: RRIRQRPPRLPRPRPRPFRTPRP
class: Not met
--
residueSequence: RRIRVRPPRLPRPRPRPQHNPRP
class: Not met
--
residueSequence: RRIRCRPPRLPRPRPRPECRPRP
class: Met
--
residueSequence: RRIRNRPPRLPRPRPRPGPMPRP
class: Not met
--
residueSequence: RRIRCRPPRLPRPRPRPPDSPRP
class: Not met
--
residueSequence: RRIRPRPPRLPRPRPRPACLPRP
class: Met
--
residueSequence: RRIRVRPPRLPRPRPRPSHFPRP
class: Not met
--
residueSequence: RRIRMRPPRLPRPRPRPAWYPRP
class: Met
--
residueSequence: RRIRNRPPRLPRPRPRPYMVPRP
class: Not met
--
residueSequence: RRIRARPPRLPRPRPRPHPNPRP
class: Met
--
residueSequence: RRIRLRPPRLPRPRPRPGQSPRP
class: Met
--
residueSequence: RRIRMRPPRLPRPRPRPEAIPRP
class: Met
--
residueSequence: RRIRRRPPRLPRPRPRPEADPRP
class: Met
--
residueSequence: RRIRMRPPRLPRPRPRPLKDPRP
class: Met
--
residueSequence: RRIRCRPPRLPRPRPRPSFEPRP
class: Not met
--
residueSequence: RRIRFRPPRLPRPRPRPIKMPRP
class: Not met
--
residueSequence: RRIRPRPPRLPRPRPRPNMFPRP
class: Not met
--
residueSequence: RRIRPRPPRLPRPRPRPVPCPRP
class: Met

----------
# System: Escherichia coli TOP10;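 note: peptides expressed intracellularly from a pBAD plasmid library in pooled LB shake-flask culture, induced with 0.3% L-arabinose, DNA abundance read by NGS, three biological replicates, DESeq2 with apeglm shrinkage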
# measurementNotes: shrunken log2 fold change of peptide-encoding DNA abundance (4.5 h post-induction vs induction); higher = less antimicrobial activity (less host growth inhibition)
# experimentalConditions: time post-induction: 4.5 h; library: site-saturation at positions 5, 18, 19, 20
Field: class. Source value: shrunken log2 fold change. Ranges: 0 = under -0.1, 1 = from -0.1 up to 0.07, 2 = 0.07 and over

residueSequence: RRIRARPPRLPRPRPRPIHNPRP
class: 1
//
residueSequence: RRIRRRPPRLPRPRPRPSNTPRP
class: 0
//
residueSequence: RRIRMRPPRLPRPRPRPACIPRP
class: 2
//
residueSequence: RRIRKRPPRLPRPRPRPWDAPRP
class: 2
//
residueSequence: RRIRHRPPRLPRPRPRPRIRPRP
class: 1
//
residueSequence: RRIRIRPPRLPRPRPRPIYTPRP
class: 0
//
residueSequence: RRIRKRPPRLPRPRPRPNHFPRP
class: 0
//
residueSequence: RRIRMRPPRLPRPRPRPFYQPRP
class: 0
//
residueSequence: RRIRDRPPRLPRPRPRPKIKPRP
class: 2
//
residueSequence: RRIRERPPRLPRPRPRPITWPRP
class: 1
//
residueSequence: RRIRTRPPRLPRPRPRPKVDPRP
class: 2
//
residueSequence: RRIRNRPPRLPRPRPRPVMTPRP
class: 1
//
residueSequence: RRIRWRPPRLPRPRPRPNHKPRP
class: 0
//
residueSequence: RRIRTRPPRLPRPRPRPEHFPRP
class: 0
//
residueSequence: RRIRARPPRLPRPRPRPHKWPRP
class: 2
//
residueSequence: RRIRHRPPRLPRPRPRPMNWPRP
class: 0
//
residueSequence: RRIRPRPPRLPRPRPRPQRWPRP
class: 2
//
residueSequence: RRIRHRPPRLPRPRPRPNVWPRP
class: 2
//
residueSequence: RRIRARPPRLPRPRPRPNHSPRP
class: 0
//
residueSequence: RRIRKRPPRLPRPRPRPPSKPRP
class: 2
//
residueSequence: RRIRQRPPRLPRPRPRPVYSPRP
class: 1
//
residueSequence: RRIRHRPPRLPRPRPRPCASPRP
class: 1
//
residueSequence: RRIRHRPPRLPRPRPRPAESPRP
class: 0
//
residueSequence: RRIRDRPPRLPRPRPRPNMNPRP
class: 0
//
residueSequence: RRIRDRPPRLPRPRPRPHTAPRP
class: 1
//
residueSequence: RRIRCRPPRLPRPRPRPVTCPRP
class: 0
//
residueSequence: RRIRSRPPRLPRPRPRPADCPRP
class: 2
//
residueSequence: RRIRYRPPRLPRPRPRPMIHPRP
class: 1
//
residueSequence: RRIRKRPPRLPRPRPRPHVMPRP
class: 2
//
residueSequence: RRIRDRPPRLPRPRPRPHRDPRP
class: 1
//
residueSequence: RRIRIRPPRLPRPRPRPFFAPRP
class: 2
//
residueSequence: RRIRIRPPRLPRPRPRPVDAPRP
class: 1
//
residueSequence: RRIRKRPPRLPRPRPRPNIYPRP
class: 0
//
residueSequence: RRIRQRPPRLPRPRPRPHMPPRP
class: 1
//
residueSequence: RRIRRRPPRLPRPRPRPCKRPRP
class: 1
//
residueSequence: RRIRQRPPRLPRPRPRPRARPRP
class: 2
//
residueSequence: RRIRWRPPRLPRPRPRPIMAPRP
class: 2
//
residueSequence: RRIRCRPPRLPRPRPRPRKTPRP
class: 2
//
residueSequence: RRIRIRPPRLPRPRPRPQGRPRP
class: 0
//
residueSequence: RRIRNRPPRLPRPRPRPEHKPRP
class: 1
//
residueSequence: RRIRHRPPRLPRPRPRPRKKPRP
class: 1
//
residueSequence: RRIRFRPPRLPRPRPRPMAWPRP
class: 1
//
residueSequence: RRIRTRPPRLPRPRPRPYACPRP
class: 0
//
residueSequence: RRIRLRPPRLPRPRPRPCPRPRP
class: 1
//
residueSequence: RRIRFRPPRLPRPRPRPVFNPRP
class: 0
//
residueSequence: RRIRERPPRLPRPRPRPCRSPRP
class: 1
//
residueSequence: RRIRWRPPRLPRPRPRPRGTPRP
class: 2
//
residueSequence: RRIRARPPRLPRPRPRPAVSPRP
class: 2
//
residueSequence: RRIRIRPPRLPRPRPRPMLKPRP
class: 0
//
residueSequence: RRIRGRPPRLPRPRPRPIGEPRP
class: 2
//
residueSequence: RRIRARPPRLPRPRPRPWGEPRP
class: 1
//
residueSequence: RRIRQRPPRLPRPRPRPACVPRP
class: 2
//
residueSequence: RRIRGRPPRLPRPRPRPCVKPRP
class: 1
//
residueSequence: RRIRPRPPRLPRPRPRPMNYPRP
class: 0
//
residueSequence: RRIRGRPPRLPRPRPRPIFFPRP
class: 2
